Ref: BindingDB's records for doi:10.1016/j.bmcl.2014.01.058

Experiment: Inhibition of recombinant full length RSK2 (unknown origin) using biotin-AGAGRSRHSSYPAGT-OH as substrate after 150 mins
Values of IC50 strictly less than 600 nM map to YES, and values of at least 600 nM map to NO.

Given Smiles	Label Value
COc1ccccc1-c1cccc2nc(Nc3cc(OC)c(OC)c(OC)c3)oc12	YES
CCOc1cccc(F)c1-c1cccc2nc(Nc3cc(OC)c(OC)c(OC)c3)oc12	YES
COc1cc(Nc2nc3cccc(-c4cccc5[nH]cnc45)c3o2)cc(OC)c1OC	YES
COc1cccc(Nc2nc3cccc(-c4c(F)cccc4OC)c3o2)n1	NO
COc1cccc(F)c1-c1cccc2nc(NC3CCOCC3)oc12	NO
COc1cccc(F)c1-c1cccc2nc(NC3CCCCC3)oc12	NO
COc1ccc(Nc2nc3cccc(-c4c(F)cccc4OC)c3o2)cc1	NO
COc1cc(Nc2nc3cccc(-c4c(OC)cccc4OC)c3o2)cc(OC)c1OC	NO
COc1cccc(F)c1-c1cccc2nc(Nc3cccc(S(N)(=O)=O)c3)oc12	YES
CCOc1cccc(Nc2nc3cccc(-c4c(F)cccc4OC)c3o2)c1	NO
COc1ccc(Nc2nc3cccc(-c4c(F)cccc4OC)c3o2)cc1OC	YES
COc1ccc(Nc2nc3cccc(-c4c(F)cccc4OC)c3o2)cc1N	YES
COc1cc(Nc2nc3cccc(-c4cccc5cn[nH]c45)c3o2)cc(OC)c1OC	YES
COc1cccc(Nc2nc3cccc(-c4c(F)cccc4OC)c3o2)c1	YES
COc1cc(C)ccc1-c1cccc2nc(Nc3cc(OC)c(OC)c(OC)c3)oc12	YES
COc1cc(Nc2nc3cccc(-c4nc(C)[nH]c4C)c3o2)cc(OC)c1OC	YES

====

Assay: Inhibition of RSK2 in mouse BAF cells assessed as YB1 phosphorylation at Ser102 by electrochemiluminescence assay
pIC50: −log10 of the molar value.
Property: pIC50; scope: individual compounds

Given Smiles	Operator	pIC50
COc1cc(Nc2nc3cccc(-c4cccc5cn[nH]c45)c3o2)cc(OC)c1OC	=	5.24
COc1ccc(C)cc1-c1cccc2nc(Nc3cc(OC)c(OC)c(OC)c3)oc12	=	4.84
COc1ccc(Nc2nc3cccc(-c4c(F)cccc4OC)c3o2)cc1	<	4.70
COc1cccc(F)c1-c1cccc2nc(NC3CCCCC3)oc12	<	4.70
COc1cc(Nc2nc3cccc(-c4ccccc4F)c3o2)cc(OC)c1OC	=	4.74
COc1cccc(F)c1-c1cccc2nc(Nc3ccccc3)oc12	<	4.70
COc1ccc(Nc2nc3cccc(-c4c(F)cccc4OC)c3o2)cc1O[C@H]1CCNC1	=	5.20
COc1cccc(Nc2nc3cccc(-c4c(F)cccc4OC)c3o2)n1	<	4.70
COc1ccc(F)cc1-c1cccc2nc(Nc3cc(OC)c(OC)c(OC)c3)oc12	=	5.43
COc1cccc(F)c1-c1cccc2nc(NC3CCOCC3)oc12	<	4.70
CCOc1cccc(Nc2nc3cccc(-c4c(F)cccc4OC)c3o2)c1	<	4.70
COc1cccc(F)c1-c1cccc2nc(Nc3cccc(S(N)(=O)=O)c3)oc12	<	4.70
COc1cc(Nc2nc3cccc(-c4c(OC)cccc4OC)c3o2)cc(OC)c1OC	<	4.70
COc1ccccc1-c1cccc2nc(Nc3cc(OC)c(OC)c(OC)c3)oc12	=	5.24
COc1ccc(Nc2nc3cccc(-c4c(F)cccc4OC)c3o2)cc1OC	=	5.19
COc1cc(Nc2nc3cccc(-c4ccccc4-c4cn[nH]c4)c3o2)cc(OC)c1OC	<	4.70
COc1cc(C)ccc1-c1cccc2nc(Nc3cc(OC)c(OC)c(OC)c3)oc12	=	5.01
COc1cc(Nc2nc3cccc(-c4nc(C)[nH]c4C)c3o2)cc(OC)c1OC	=	4.70
COc1cc(Nc2nc3cccc(-c4cccc5[nH]cnc45)c3o2)cc(OC)c1OC	=	6.10
COc1cc(Nc2nc3cccc(-c4c(F)cccc4OC(C)C)c3o2)cc(OC)c1OC	<	4.70
COc1cc(Nc2nc3cccc(-c4ccccc4OC(F)(F)F)c3o2)cc(OC)c1OC	<	4.70

====

Assay: Inhibition of recombinant full length RSK2 (unknown origin) using biotin-AGAGRSRHSSYPAGT-OH as substrate after 150 mins
pIC50: −log10 of the molar value.

Given Smiles	pIC50
COc1cc(Nc2nc3cccc(-c4c(F)cccc4OC(C)C)c3o2)cc(OC)c1OC	6.01
COc1cc(Nc2nc3cccc(-c4c(F)cccc4OC)c3o2)cc(OC)c1	6.68
COc1cc(Nc2nc3cccc(-c4ccccc4F)c3o2)cc(OC)c1OC	6.66
COc1cc(Nc2nc3cccc(-c4ccccc4-c4cn[nH]c4)c3o2)cc(OC)c1OC	5.03
COc1cccc(F)c1-c1cccc2nc(Nc3ccccc3)oc12	6.00
COc1ccc(Nc2nc3cccc(-c4c(F)cccc4OC)c3o2)cc1O[C@H]1CCNC1	8.00
COc1cccc(F)c1-c1cccc2nc(N)oc12	5.55
COc1ccc(C)cc1-c1cccc2nc(Nc3cc(OC)c(OC)c(OC)c3)oc12	5.96
COc1cc(Nc2nc3cccc(-c4ccccc4OC(F)(F)F)c3o2)cc(OC)c1OC	5.40
COc1ccc(F)cc1-c1cccc2nc(Nc3cc(OC)c(OC)c(OC)c3)oc12	7.40

====

Assay: Inhibition of RSK2 in mouse BAF cells assessed as YB1 phosphorylation at Ser102 by electrochemiluminescence assay
pIC50: −log10 of the molar value.
Recorded Endpoint: pIC50

Given Smiles	Operator	Recorded Value
COc1cccc(F)c1-c1cccc2nc(N)oc12	<	4.70
COc1ccc(Nc2nc3cccc(-c4c(F)cccc4OC)c3o2)cc1N	<	4.70
COc1cc(Nc2nc3cccc(-c4c(F)cccc4OC)c3o2)cc(OC)c1	=	4.76
CCOc1cccc(F)c1-c1cccc2nc(Nc3cc(OC)c(OC)c(OC)c3)oc12	=	4.97
COc1cccc(Nc2nc3cccc(-c4c(F)cccc4OC)c3o2)c1	=	4.81
